measure-name: melting point

> print(dat)
                                    molecule             result
 1  CN(C(=O)CSC(c1ccc(F)cc1)(c1ccc(F)cc1)c1ccccc1F)c1ccccc1      120 to 121 °C
 2  COP(=O)(OC)C(c1ccc(F)cc1)(c1ccc(F)cc1)c1ccc(Cl)cc1      136 to 137 °C
 3  O=C(CSC(c1ccc(F)cc1)(c1ccc(F)cc1)c1ccccc1F)N1CCCCC1      128 to 129 °C
 4  Fc1ccc(C(OP2OCCO2)(c2ccc(F)cc2)c2ccc(F)cc2)cc1      195 to 196 °C
 5  O=[N+]([O-])c1ccc(OC(c2ccc(F)cc2)(c2ccc(F)cc2)c2nccs2)cc1C(F)(F)F    88.6 to 89.5 °C
 6  Cc1ccc(C(c2ccc(F)cc2)(c2ccc(F)cc2)P(=O)(O)O)cc1      240 °C (dec.)
 7  Cn1ccnc1SC(c1ccc(F)cc1)(c1ccc(F)cc1)c1ccc(F)cc1  135.5 to 140.5 °C
 8  CC(SC(c1ccc(F)cc1)(c1ccc(F)cc1)c1ccccc1F)C(N)=O (centres unmarked)      133 to 134 °C
 9  CS(=O)(=O)C(c1ccc(F)cc1)(c1ccc(F)cc1)c1ccc(F)cc1  140.6 to 145.3 °C
10  N#CC(c1ccc(F)cc1)(c1ccc(F)cc1)C(c1ccccc1)c1ccccc1    208 to 212.5 °C
11       CC(C)C(C#N)(c1ccc(F)cc1)c1ccc(F)cc1    142.3 to 147 °C
12  COP(=O)(OC)C(c1ccc(F)cc1)(c1ccccc1F)c1ccccc1Cl (centres unmarked)  131.5 to 132.5 °C
13  COC(=O)C(C#N)(c1ccc(F)cc1)c1ccccc1F (centres unmarked)      104 to 105 °C
14  CS(=O)(=O)C(c1ccc(F)cc1)(c1ccc(F)cc1)c1ccccc1F      147 to 149 °C
15  COP(=O)(OC)C(c1ccc(F)cc1)(c1ccc(F)cc1)c1ccccc1F           136.6 °C
16  O=P(O)(O)C(c1ccc(F)cc1)(c1ccc(F)cc1)c1ccccc1F      228 to 230 °C
17        N#CCC(C#N)(c1ccc(F)cc1)c1ccc(F)cc1        93 to 94 °C
18  CCOC(=O)C(C(=O)OCC)C(C#N)(c1ccc(F)cc1)c1ccc(F)cc1      117 to 119 °C
19  [O-][n+]1ccccc1SC(c1ccc(F)cc1)(c1ccc(F)cc1)c1ccc(F)cc1  147.7 to 151.8 °C
20  NC(=O)CSC(c1ccc(F)cc1)(c1ccc(F)cc1)c1ccccc1F      119 to 120 °C
21      CC(=O)C(C#N)(c1ccc(F)cc1)c1ccc(F)cc1            < 50 °C
22  C=CCC(C#N)(c1ccc(F)cc1)c1ccccc1F (centres unmarked)      215 to 219 °C
23  Fc1ccc(C(OP2OCCO2)(c2ccc(F)cc2)c2ccccc2F)cc1      163 to 164 °C
24  N#CCSC(c1ccc(F)cc1)(c1ccc(F)cc1)c1ccccc1F      111 to 112 °C
25  N#CC(c1ccc(F)cc1)(c1ccccc1F)C(c1ccccc1)c1ccccc1 (centres unmarked)    210 to 215.3 °C
26  COP(=O)(OC)C(c1ccc(F)cc1)(c1ccc(F)cc1)c1ccc(F)cc1           131.6 °C
27  O=S(=O)(c1ccccc1)C(c1ccc(F)cc1)(c1ccc(F)cc1)c1ccc(F)cc1  157.4 to 160.6 °C
28  O=C(O)CSC(c1ccc(F)cc1)(c1ccc(F)cc1)c1ccccc1F      112 to 113 °C
29  CCN(CC)C(=O)CSC(c1ccc(F)cc1)(c1ccc(F)cc1)c1ccccc1F      122 to 123 °C
